Where do these numbers come from? They come from patent US20210032312A1.

Quick reference: kon of the listed items.
Biological target: T1, human CD8A-Fc (recombinant human CD8 alpha fused to Fc fragment of human IgG1) (human, UniProt P01732 22-182, limits assumed)
T1 construct: SPR ligand, captured by goat anti-human Fc; also called hCD8A-Fc; recombinant CD8 alpha; not shown: linker with flag (and polyhistidine) tag and Fc fragment of human IgG1; depends on which of the two constructs was used
T1 sequence (P01732 22-182 limits assumed): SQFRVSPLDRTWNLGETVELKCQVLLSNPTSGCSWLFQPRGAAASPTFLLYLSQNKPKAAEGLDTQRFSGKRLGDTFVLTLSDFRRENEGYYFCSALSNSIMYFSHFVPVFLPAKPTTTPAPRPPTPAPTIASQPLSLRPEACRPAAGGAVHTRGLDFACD
Assay: SPR (ProteOn), captured hCD8A-Fc, heterogeneous ligand fit, lower affinity population
Numbers only; they are read as M⁻¹ s⁻¹.

binder	unit text	experimental result
P282DR9P1359_G7 (designed binder, FN3 domain (Centyrin); purified as His-tagged protein, tag not in the entry) LPAPKNLVVSRVTEDSARLSWTAPDAAFDSFAITYIEKEHIEDGEAIVLTVPGSERSYDLTGLKPGTEYWVPIWGVKGGANSWPLSAIFTT	M⁻¹ s⁻¹	68400
P282DR9P1359_F5 (designed binder, FN3 domain (Centyrin); purified as His-tagged protein, tag not in the entry) LPAPKNLVVSRVTEDSARLSWTAPDAAFDSFQIAYPEWPPPGEAIVLTVPGSERSYDLTGLKPGTEYFVIIQGVKGGVESWPLSAIFTT	M⁻¹ s⁻¹	34800
P283AR9P1362_D6 (designed binder, FN3 domain (Centyrin); purified as His-tagged protein, tag not in the entry) LPAPKNLVVSRVTEDSARLSWAKRPGAFDSFLIQYQESEKVGEAIVLTVPGSERSYDLTGLKPGTEYTVSIYGVDVKYDIDSRPISSNPLSAIFTT	M⁻¹ s⁻¹	56200

For P282DR9P1359_C5 (designed binder, FN3 domain (Centyrin); purified as His-tagged protein, tag not in the entry) LPAPKNLVVSRVTEDSARLSWTAPDAAFDSFWITYPEWPDPGGEAIVLTVPGSERSYDLTGLKPGTEYFVVIYGVKGGEIYSPLSAIFTT , what is its reported kon?
19200

For P282DR9P1359_F7 (designed binder, FN3 domain (Centyrin); purified as His-tagged protein, tag not in the entry) LPAPKNLVVSRVTEDSARLSWTAPDAAFDSFAIAYPEWPPQGEAIVLTVPGSERSYDLTGLKPGTEYFVVIYGVKGGSYSAPLSAIFTT , what is its reported kon?
40300

For P282ER9P1360_C8 (designed binder, FN3 domain (Centyrin); purified as His-tagged protein, tag not in the entry) LPAPKNLVVSRVTEDSARLSWTAPDAAFDSFGILYYEPVDSGEAITLPVPGSERSYDLTGLKPGTEYWVVITGVKGGAPSTPLGTIFTT , what is its reported kon?
30900
